tested on: SARS-CoV-2; experiment: Antiviral activity against SARS CoV-2 infected in african green monkey Vero E6 cells assessed as inhibition of viral growth preincubated with cells for 1 hr followed by viral addition for 1 hr with subsequent compound washout and measured after 24 hrs of compound replacement by qRT-PCR analysis; assay type: functional, organism-based; conditions: Severe acute respiratory syndrome coronavirus 2, Vero C1008
pIC50: −log10 of the molar value.

| MOLECULE | TARGET OR SYSTEM | MODIFIER SIGN | pIC50 |
| --- | --- | --- | --- |
| COc1cc2c3cc1Oc1c(OC)c(OC)cc4c1[C@H](Cc1ccc(cc1)OC1C=C(Cc5[nH]c(=O)oc51)C[C@H]3N(C)CC2)N(C)CC4 (stereo partly specified) | SARS-CoV-2 | = | 6.17 |
| COc1cc2c3cc1Oc1c(OC)c(OC)cc4c1[C@H](Cc1ccc(cc1)Oc1cccc(c1)C[C@H]3N(C)CC2)N(C)CC4 | SARS-CoV-2 | = | 6.03 |
| COc1cc2c3cc1Oc1c(OC)c(OC)cc4c1[C@H](Cc1ccc(cc1)Oc1cc(ccc1C(=O)NC1CCC1)C[C@H]3N(C)CC2)N(C)CC4 | SARS-CoV-2 | = | 6.28 |
| COc1cc2c3cc1Oc1c(OC)c(OC)cc4c1[C@H](Cc1ccc(cc1)Oc1cc(ccc1C(=O)O)C[C@H]3N(C)CC2)N(C)CC4 | SARS-CoV-2 | < | 5.30 |
| COc1cc2c3cc1Oc1c(OC)c(OC)cc4c1[C@H](Cc1ccc(cc1)Oc1cc(cc([N+](=O)[O-])c1)C[C@H]3N(C)CC2)N(C)CC4 | SARS-CoV-2 | = | 6.14 |
| COc1cc2c3cc1Oc1c(OC)c(OC)cc4c1[C@H](Cc1ccc(cc1)Oc1cc(ccc1C(=O)NC1CC1)C[C@H]3N(C)CC2)N(C)CC4 | SARS-CoV-2 | = | 6.05 |
